System: ANGIOTENSIN II VASOPRESSOR RESPONSE
Assay: AII Challenge: blockade of angiotensin II vasopressor response in conscious SHR
Assay type: in vivo, rat (Conscious Male Okamoto-Aoki SHR)
Conditions: SHR n=2; 3 mg/kg p.o.; AII 0.05 mcg/kg IV; 120 min post dose
Param label: returns Satisfied when % Inhibition of AII vasopressor response < 50%, returns Not satisfied otherwise, including exact equality.

# input hey, is % Inhibition of AII vasopressor response for CCCCc1nc2ccc(C(OC)C3CCCN(C)C3=O)cc2c(=O)n1Cc1ccc(-c2ccccc2-c2nn[nH]n2)cc1 (single isomer, unassigned; isomer 1) [Example 42] lower than 50% or not?
# output Satisfied

# input Then what about the compound CCCCc1nc2ccc(C(O)C3CCN(C)C3=O)cc2c(=O)n1Cc1ccc(-c2ccccc2-c2nn[nH]n2)cc1 (single isomer, unassigned; isomer 1) [Example 32] ?
# output Satisfied

# input Then what about the compound CCCCc1nc2ccc(C(O)C3CCN(C)C3=O)cc2c(=O)n1Cc1ccc(-c2ccccc2-c2nn[nH]n2)cc1 (single isomer, unassigned; isomer 2) [Example 33] ?
# output Not satisfied

# input Then what about the compound CCCCc1nc2ccc(C(O)C3CCCN(C)C3=O)cc2c(=O)n1Cc1ccc(-c2ccccc2-c2nn[nH]n2)cc1 (single isomer, unassigned; isomer 2) [Example 38] ?
# output Not satisfied

***
# input hey, is % Inhibition of AII vasopressor response for CCCCc1nc2ccc(C(O)C3CCCN(C)C3=O)cc2c(=O)n1Cc1ccc(-c2ccccc2-c2nn[nH]n2)cc1 (single isomer, unassigned; isomer 1) [Example 37] lower than 50% or not?
# output Satisfied

# input Then what about the compound CCCCc1nc2ccc(C(OC)C3CCCO3)cc2c(=O)n1Cc1ccc(-c2ccccc2-c2nn[nH]n2)cc1 (single isomer, unassigned) [Example 24] ?
# output Not satisfied

# input Then what about the compound CCCCc1nc2ccc(C(OC)C3CCCO3)cc2c(=O)n1Cc1ccc(-c2ccccc2-c2nn[nH]n2)cc1 (single isomer, unassigned; isomer 1) [Example 23] ?
# output Satisfied

# input Then what about the compound CCCCc1nc2ccc(C(OC)C3CCCN(C)C3=O)cc2c(=O)n1Cc1ccc(-c2ccccc2-c2nn[nH]n2)cc1 (single isomer, unassigned; isomer 2) [Example 43] ?
# output Not satisfied

###

System: ANGIOTENSIN II VASOPRESSOR RESPONSE
Test: AII Challenge: blockade of angiotensin II vasopressor response in conscious SHR
Format: in vivo, rat (Conscious Male Okamoto-Aoki SHR)
Details: SHR n=2; 3 mg/kg p.o.; AII 0.05 mcg/kg IV; 90 min post dose
Attribute: % Inhibition of AII vasopressor response

# input molecule: CCCCc1nc2ccc(C(O)C3CCCN(C)C3=O)cc2c(=O)n1Cc1ccc(-c2ccccc2-c2nn[nH]n2)cc1 (single isomer, unassigned; isomer 2) [Example 38] ; wanted: its % Inhibition of AII vasopressor response
# output 46%

# input Then what about the molecule CCCCc1nc2ccc(C(O)C3CCN(C)C3=O)cc2c(=O)n1Cc1ccc(-c2ccccc2-c2nn[nH]n2)cc1 (single isomer, unassigned; isomer 1) [Example 32] ?
# output 62%

# input Then what about the molecule CCCCc1nc2ccc(C(OC)C3CCCN(C)C3=O)cc2c(=O)n1Cc1ccc(-c2ccccc2-c2nn[nH]n2)cc1 (single isomer, unassigned; isomer 2) [Example 43] ?
# output 53%

# input Then what about the molecule CCCCc1nc2ccc(C(OC)C3CCCO3)cc2c(=O)n1Cc1ccc(-c2ccccc2-c2nn[nH]n2)cc1 (single isomer, unassigned; isomer 1) [Example 23] ?
# output 37%

# input Then what about the molecule CCCCc1nc2ccc(C(O)C3CCN(C)C3=O)cc2c(=O)n1Cc1ccc(-c2ccccc2-c2nn[nH]n2)cc1 (single isomer, unassigned; isomer 2) [Example 33] ?
# output 50%

***
# input molecule: CCCCc1nc2ccc(C(OC)C3CCCN(C)C3=O)cc2c(=O)n1Cc1ccc(-c2ccccc2-c2nn[nH]n2)cc1 (single isomer, unassigned; isomer 1) [Example 42] ; wanted: its % Inhibition of AII vasopressor response
# output 50%

# input Then what about the molecule CCCCc1nc2ccc(C(O)C3CCCN(C)C3=O)cc2c(=O)n1Cc1ccc(-c2ccccc2-c2nn[nH]n2)cc1 (single isomer, unassigned; isomer 1) [Example 37] ?
# output 29%

# input Then what about the molecule CCCCc1nc2ccc(C(OC)C3CCCO3)cc2c(=O)n1Cc1ccc(-c2ccccc2-c2nn[nH]n2)cc1 (single isomer, unassigned) [Example 24] ?
# output 48%
